System: normal primary NK cells, pool 1 (3 donors), resting (IL-2 0 ng/mL)
EXPERIMENT DESCRIPTION: drug sensitivity score (DSS) (DSS units); higher = more sensitive; extreme values may be limits of the assay
TEST PARAMETERS: 72 h
MEASURED QUANTITY: drug sensitivity score
# answer = number (no unit)

Completed entries (count: 2):
CC(=O)[C@]1(O)Cc2c(O)c3c(c(O)c2[C@@H](O[C@H]2C[C@H](N)[C@H](O)[C@H](C)O2)C1)C(=O)c1ccccc1C3=O [Idarubicin] (max concentration tested 1000 nM)	27.5
Nc1cccc2c1CN(C1CCC(=O)NC1=O)C2=O (stereo not drawn) [Lenalidomide] (max concentration tested 100000 nM)	7.86

Consider now this further compound.
Return reported drug sensitivity score; argument: CN1CCN(CCOc2cc(OC3CCOCC3)c3c(Nc4c(Cl)ccc5c4OCO5)ncnc3c2)CC1 [Saracatinib] (max concentration tested 10000 nM)
7.66

###

Tested on: normal primary NK cells, pool 1 (3 donors) (IL-2 2.5 ng/mL)
EXPERIMENT DESCRIPTION: percent inhibition of viability; higher = more inhibition
TEST PARAMETERS: 72 h; 1000 nM
Readings of percent inhibition of viability for the listed molecules
The response must be a number in % with no trailing unit.

CNc1nc(-c2ccc3c(N)n[nH]c3c2)cc(N2C[C@@H](C(=O)NC3CCCCC3)CC[C@H]2C)n1 (max concentration tested 10000 nM)	25.5
CS(=O)(=O)c1ccc(C2=C(c3ccccc3)C(=O)OC2)cc1 [Rofecoxib] (max concentration tested 10000 nM)	2.49
C/C(=C\c1csc(C)n1)[C@@H]1C[C@@H]2O[C@]2(C)CCC[C@H](C)[C@H](O)[C@@H](C)C(=O)C(C)(C)[C@@H](O)CC(=O)O1 [Patupilone] (max concentration tested 1000 nM)	6.51

Next item in the queue.
Query: percent inhibition of viability; subject: CNNCc1ccc(C(=O)NC(C)C)cc1 [Procarbazine] (max concentration tested 10000 nM)
-1.7

###

Test system: normal primary NK cells, pool 1 (3 donors), resting (IL-2 0 ng/mL)
EXPERIMENT DESCRIPTION: percent inhibition of viability; higher = more inhibition
TEST PARAMETERS: 72 h; 1000 nM
MEASURED QUANTITY: percent inhibition of viability

COc1ccc(S(=O)(=O)Nc2cccnc2Nc2ccc(O)cc2)cc1 [ABT-751] (max concentration tested 10000 nM)	16.9%
O=C(NOCC1CC1)c1ccc(F)c(F)c1Nc1ccc(I)cc1Cl (max concentration tested 10000 nM)	8.17%
CC(C)C[C@H](NC(=O)[C@@H](COC(C)(C)C)NC(=O)[C@H](Cc1ccc(O)cc1)NC(=O)[C@H](CO)NC(=O)[C@H](Cc1c[nH]c2ccccc12)NC(=O)[C@H](Cc1cnc[nH]1)NC(=O)[C@@H]1CCC(=O)N1)C(=O)N[C@@H](CCCNC(=N)N)C(=O)N1CCC[C@H]1C(=O)NNC(N)=O [Goserelin] (max concentration tested 10000 nM)	19.8%

Would you mind telling me what percent inhibition of viability value was observed for C/C(=C\c1csc(C)n1)[C@@H]1C[C@@H]2O[C@]2(C)CCC[C@H](C)[C@H](O)[C@@H](C)C(=O)C(C)(C)[C@@H](O)CC(=O)O1 [Patupilone] (max concentration tested 1000 nM) ?
15.2%

Please give the result for Clc1ccccc1C(c1ccccc1)(c1ccccc1)n1cccn1 [TRAM-34] (max concentration tested 1000 nM) too.
-3.17%

Same question, CC[C@@H]1C(=O)N(C)c2cnc(Nc3ccc(C(=O)N[C@H]4CC[C@H](N5CCN(CC6CC6)CC5)CC4)cc3OC)nc2N1C(C)C [Volasertib] (max concentration tested 1000 nM) this time
16%

Repeat with CC(C)n1nc(-c2ccc3oc(N)nc3c2)c2c(N)ncnc21 [INK128] (max concentration tested 1000 nM)
34.9%

Similarly, CN(C)Cc1ccc(S(=O)(=O)n2ccc(/C=C/C(=O)NO)c2)cc1 [Resminostat] (max concentration tested 10000 nM) ?
73.7%

Value source: the supplement of paper PMC5908809
